assay: NCI Yeast Anticancer Drug Screen. Data for the bub3 strain (AID 167); details: S. cerevisiae bub3 mutant strain, at 5.0 µM (retest, dose inferred, filed as 0.5), hits give high values
The panel holds about 79,000 compounds, 15% with a hit somewhere; the sample as a whole holds those more often.
Label rule met when growth inhibition >= -10%; otherwise rule not met.

Some entries whose results are on file:
[
  {
    "Compound": "CSc1ccc2c(c1)C(N1CCN(C)CC1)Cc1ccccc1S2 (configuration not stated)",
    "Class name": "rule met"
  },
  {
    "Compound": "Cc1ccc(S(=O)(=O)N/N=C/c2c(O)ccc3ccccc23)cc1",
    "Class name": "rule met"
  },
  {
    "Compound": "O=C1C=CC(=Nc2ccc3c(c2)Cc2cc(Cl)ccc2-3)O1",
    "Class name": "rule met"
  },
  {
    "Compound": "Cn1c(COc2ccc(/C=N/NC(=O)CCC(=O)N/N=C/c3ccc(OCc4c[n+]5ccccc5n4C)cc3)cc2)c[n+]2ccccc12",
    "Class name": "rule not met"
  },
  {
    "Compound": "Cc1cccc(N2CCN(C(=O)/C(=C/c3ccccc3)NC(=O)c3ccccc3)CC2)c1",
    "Class name": "rule not met"
  }
]

Challenge: Could you please find out whether O=C1c2ccccc2-c2ccc(NC(=O)C3CCCCC3C(=O)O)cc21 (configuration not stated) has growth inhibition that meets -10% or exceeds it?
Response given: rule met

Challenge: Could you please find out whether "O=c1[nH]c(=O)n(CCCO)cc1F" has growth inhibition that meets -10% or exceeds it?
Response given: rule met

Challenge: Could you please find out whether "Nc1c([N+](=O)[O-])cc2c3c(cccc13)CC2" has growth inhibition that meets -10% or exceeds it?
Response given: rule not met

Challenge: Could you please find out whether "C#CC1=CC(=O)C(OC)=CC1=O" has growth inhibition that meets -10% or exceeds it?
Response given: rule met

Challenge: Could you please find out whether "COc1cc(C(C)(C)C)cc(OC)c1C(O)(c1c(OC)cc(C(C)(C)C)cc1OC)c1c(OC)cc(C(C)(C)C)cc1OC" has growth inhibition that meets -10% or exceeds it?
Response given: rule met

Challenge: Could you please find out whether "CCOC(=O)/C=C1\CCCn2c1ncc(C(=O)OCC)c2=O" has growth inhibition that meets -10% or exceeds it?
Response given: rule not met

Challenge: Could you please find out whether "CN(C)CCNC(=O)c1cccc2nc3c(ccc4ccccc43)nc12" has growth inhibition that meets -10% or exceeds it?
Response given: rule not met

meta.source: PubChem BioAssay (NCI)
